Exercise: for every item that follows, state its recorded AC50.
- Tested on: HTT mRNA
- test.name: Splicing RT-qPCR assay, HTT canonical (CJ) and alternative (AJ) junction mRNA
- Format: cell-based, human
- study.conditions: Homo sapiens, A673 or K562 cells, 24 hours compound treatment, read-out: HTT AJ (AC50, increase in alternative junction mRNA)
Counter-ions that a name gives are not always drawn.

Return value of AC50 for input Cc1cn2cc(NC(=O)c3ccc(N4CCNCC4)c4cn(C5CCOCC5)nc34)cc(F)c2n1 [Compound 304, trifluoroacetic acid salt] , no commentary.
> 10 µM

Return value of AC50 for input Cc1cn2cc(NC(=O)c3ccc(N4CCNCC4)c4cn(C)nc34)cc(C)c2n1 [Compound 238] , no commentary.
1 to 10 µM

Return value of AC50 for input Cc1cn2cc(NC(=O)c3ccc(N4CC[C@@H](NC5CCC5)C4)c4cn(C)nc34)cc(F)c2n1 [Compound 533] , no commentary.
1 to 10 µM

Return value of AC50 for input Cc1cn2cc(NC(=O)c3ccc(N4CCNCC4)c4cn(CC5(C)COC5)nc34)cc(F)c2n1 [Compound 308] , no commentary.
> 10 µM

Return value of AC50 for input CCN1CCC(c2ccc(C(=O)Nc3cc(F)c4nc(C)cn4c3)c3oc(C)cc23)CC1 [Compound 257] , no commentary.
1 to 10 µM

Return value of AC50 for input CCn1cc2c(N3CCC(CC)(NC)CC3)ccc(C(=O)Nc3cc(F)c4nc(C)cn4c3)c2n1 [Compound 515] , no commentary.
0.1 to 1 µM

Return value of AC50 for input CCOc1nc(NC(=O)c2ccc(N3CCC(NC)C3)c3cn(C)nc23)cn2cc(C)nc12 (stereo not shown) [Compound 420] , no commentary.
> 10 µM
